- Tested on: HepG2 Srxn1-GFP reporter cells (+30 nM CDDO-Me)
- Measurement notes: Srxn1-GFP intensity median modified Z-score relative to plate median; higher = stronger NRF2 / oxidative stress reporter activation, active = hit call of the paper
- Condition context: 10 µM; exposure time: 24h
The campaign covered roughly 2,300 compounds. About 330 (14%) showed activity.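 How the source made its calls: active = median modified Z-score above 1.96; inactive = 1.96 or below.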 These entries were drawn from the full list.
Your answer must be one of the following: TRUE (active), FALSE (inactive)

# input Name the outcome recorded for `COc1ccc(-c2coc3c4c(c(CC=C(C)C)c(OC)c3c2=O)OC(C)(C)C=C4)cc1OC` in the assay.
# output FALSE

# input Okay, and NC[C@H]1O[C@H](O[C@H]2C(O[C@@H]3O[C@H](CO)[C@@H](O)[C@H]3O)[C@@H](O)[C@H](N)C[C@@H]2N)[C@H](N)[C@@H](O)[C@@H]1O (some centres undefined) ?
# output FALSE

# input Again, but for `COc1ccc(C(=O)c2ccc(O)cc2)c(O)c1O`
# output FALSE

# input Would you mind doing `COc1cc(OC)c2c(=O)c(-c3ccccc3)c(C)oc2c1OC` as well?
# output FALSE

# input And `COc1cccc(O)c1O` ?
# output TRUE

# input Again, but for CO[C@H]1/C=C/O[C@@]2(C)Oc3c(C)c(O)c4c(O)c(c5c(nc6cc(C)ccn65)c4c3C2=O)NC(=O)/C(C)=C\C=C\C(C)[C@H](O)[C@@H](C)C(O)[C@@H](C)[C@H](OC(C)=O)[C@@H]1C (some centres undefined)
# output FALSE

# input Try `COc1cc(O)cc(OC)c1OC` next.
# output FALSE

# input Now give it for `NN=c1[nH]ncc2ccccc12` too.
# output FALSE

# input And then `N=C(N)NC(=O)c1nc(Cl)c(=N)[nH]c1N` , what is it?
# output FALSE
